# experimentalSystem: EBOV Mayinga (GenBank: NC_002549) (Zaire Ebolavirus (EBOV Mayinga)) (UniProt Q05320)
# experimentSummary: cell-based or functional assay
measuredParameter: neutralization concentration (GMC, CPE reduction on Vero C1008 cells) (µg/mL)
Write the number in µg/mL without appending the unit.

Consider the following illustrative entries.
4T0452 (antibody, V domains shown) VH: EVQLVESGGGLVKPGGSLRISCAASGFSFSNAWMNWVRQAPGKGLEWVGRIKSVSDGGPIHYAAPVKGRFTISRDDSKKMLYLQMNSLKVDDTAVYYCATEPRGYDWGWGQGTLVTVSS VL: QSVLTQPPSVSGAPGQRVTISCTGSYSNIGAGYDVYWYQQFPGTAPKLLIYGNTNRPSGVPDRFSGSRSGTSASLAITGLQAEDEAHYYCQSYDSRLRDNWVLGGGTKLTVL
0.88
3T0258 (antibody, V domains shown) VH: QVQLVQSGAEVKQPGASVKVTCKASGSTRSSYDLIWVRQAPGQGLELMGRVNTHNGNTDYAQKFQGRVTMTTDTSTTTAHMELRNLRSDDTAVYYCAWRRSSWFAFDVWGQGTAVTVSS VL: EIVLTQSPGTLSLSPGERGTLSCRASQSISGNYLGWYQQSPGQAPRLLIYGASNRATGVPDRFSGSGSGTDFTLTISRLEPEDFAVYYCQQYVSSPYTFGQGTKLEIK
0.06
3T0673 (antibody, V domains shown) VH: EVQLVESGGGRVKPGGSLRVSCAVSGITFTNAWMTWVRQAPGKGLEWLGRIKSRSDGGQSDLIAPVKGRFTISRDDSKNILYLQMNNLKTEDTGLYFCTTYYYDNGGSYSNPWGLGTLVTVSS VL: QSVLTQPPSVSGAPGQRVTISCTGSYSNIGAGYDVLWYQQLPGTAPKLLIYGNNKRPSGVPDRFSGSKSGTSASLAITGLQAEDEADYYCQSYDSRLRDFGIFGGGTKLTVL
0.53
4T0578 (antibody, V domains shown) VH: EVQLVESGGALVQPGGSLRLSCAASGFTFSRYDIHWVRQASGKGLEWVSAIGKAGDAYYAGSVRGRFTISRENAKNSLYLQMNSLRAGDTAVYYCARASFGDLYFDLWGRGTLVTVSS VL: DIVMTQSPDSLAVSLGERATINCKSSQSLLHSSNNKNSVAWYQQKPGQPPKLLIYWASTREFGVPDRFSGSGSGTDFALTISSLQAEDVAVYVCQQYYNSPLTFGPGTKVDIK
0.45

Moving on to the next binder.
// returns reported neutralization concentration (GMC, CPE reduction on Vero C1008 cells) for input 5T0180 (antibody, V domains shown) VH: EVQLVESGGGLVKPGGSLRLSCAASGFSFGNAWMNWVRQAPGKGLEWVGRIKSKSDGGTTDYAAPVKDRFIISRDDSKKTLYLQMNSLRREDTAVYYCVRGPFYCDTCGPNDYWGQGTLVTVSS VL: QSVLTQPPSVSGAPGQRVTISCTGSSSNIGAGYDVQWYQQLPGTAPKVLIYGNNNRPSGVPDRFSGSKSGSSASLAITGLQAEDEADYYCQTYDSRLRDQWVFGGGTKLTVL 12.5
